Subject Of Test: human GLP-1 receptor (human, UniProt P43220 24-463)
Measurement Protocol: cell-based or functional assay
Bridges are numbered along the chain shown (N, C = ends). Where no end group is shown, it is not given here. [ ]: non-standard residue; d: D form. The star is where a group is joined. Acetyl(2-(4-imidazolyl)) = O=C(Cc1c[nH]cn1)*; Aib = CC(C)(N)C(=O)O
Observable: In vitro activity (%) vs. GLP-1, cAMP EC50

In [3]: df
Out[3]:
                                     binder  quantitative_result
0  {Acetyl(2-(4-imidazolyl))}-[Aib]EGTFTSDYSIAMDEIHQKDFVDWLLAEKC (bridge 15-19) [triple agonist of SEQ ID NO: 91]                 31.9
1  H[Aib]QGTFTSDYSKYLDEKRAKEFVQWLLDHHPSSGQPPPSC (bridge 16-20; ends not checked) [triple agonist of SEQ ID NO: 50]                 67.4
2  H[Aib]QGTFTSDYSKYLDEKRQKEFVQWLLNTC (bridge 16-20; ends not checked) [triple agonist of SEQ ID NO: 51]                 14.4
3  [Acetyl(2-(4-imidazolyl))]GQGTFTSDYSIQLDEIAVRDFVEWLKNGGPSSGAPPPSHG [triple agonist of SEQ ID NO: 14]                   28
